# Species: Homo sapiens
# PROTOCOL DETAILS: Protein binding in human plasma
# REPORTED CONDITIONS: read-out: PPB (converted)
READOUT NAME: fraction unbound

Return reported fraction unbound. Input compound: C[C@H](Nc1nc(C(=O)N2CCCC2)c2sccc2n1)c1cccnc1 0.15

---

# TEST TARGET: Adenosine receptor A2a (Homo sapiens, UniProt P29274)
# Sequence (P29274 whole entry): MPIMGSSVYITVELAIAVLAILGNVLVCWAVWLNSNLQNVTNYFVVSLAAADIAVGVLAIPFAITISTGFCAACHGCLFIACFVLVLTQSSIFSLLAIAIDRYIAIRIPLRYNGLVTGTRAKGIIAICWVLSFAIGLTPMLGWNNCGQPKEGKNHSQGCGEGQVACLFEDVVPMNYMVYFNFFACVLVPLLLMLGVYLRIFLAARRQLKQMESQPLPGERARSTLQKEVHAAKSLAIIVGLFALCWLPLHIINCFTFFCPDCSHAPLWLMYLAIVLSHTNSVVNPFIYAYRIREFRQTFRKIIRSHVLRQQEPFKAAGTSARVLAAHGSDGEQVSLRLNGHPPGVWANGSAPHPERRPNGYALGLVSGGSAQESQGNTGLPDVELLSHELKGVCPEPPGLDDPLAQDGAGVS
# PROTOCOL DETAILS: Antagonist activity at human adenosine A2A receptor expressed in CHOK1 cells assessed as inhibition of calcium mobilization by FLIPR assay
READOUT NAME: IC50 (nM)
Hi! Could you send only the number? It should be in nM, unit omitted.

Return reported IC50. Input compound: Cc1ccc(C(=O)c2nc(NCc3ccccc3)nc3ccsc23)s1 7150

Return reported IC50. Input compound: Cc1ccc(C(=O)c2nc(NC(C)c3ccccc3)nc3ccsc23)s1 (configuration not stated) 1080

Return reported IC50. Input compound: CCNc1nc(C(=O)c2ccc(C)s2)c2sccc2n1 126

Return reported IC50. Input compound: Cc1ccc(C(=O)c2ncnc3ccsc23)s1 6690

Return reported IC50. Input compound: COc1ccc(C(=O)c2nc(NCc3cccnc3)nc3ccsc23)cc1 637

Return reported IC50. Input compound: O=C(c1cccs1)c1nc(NCc2cccnc2)nc2ccsc12 51

Return reported IC50. Input compound: O=C(c1nccs1)c1nc(NCc2cccnc2)nc2ccsc12 732

Return reported IC50. Input compound: O=C(c1ccc(Cl)s1)c1nc(NCc2cccnc2)nc2ccsc12 1540

Return reported IC50. Input compound: O=C(c1ccccc1)c1nc(NCc2cccnc2)nc2ccsc12 1620

Return reported IC50. Input compound: Cc1ccc(C(=O)c2nc(NC(C)c3ccccn3)nc3ccsc23)s1 (configuration not stated) 118

Return reported IC50. Input compound: Cc1ccc(C(=O)c2nc(NC(C)c3cccnc3)nc3ccsc23)s1 (configuration not stated) 99

Return reported IC50. Input compound: Cc1ccc(C(=O)c2nc(N)nc3ccsc23)s1 220

---

# TEST TARGET: Adenosine receptor A2b (Homo sapiens)
# PROTOCOL DETAILS: Antagonist activity at human adenosine A2B receptor expressed in CHOK1 cells assessed as inhibition of calcium mobilization by FLIPR assay
Provide the recorded pIC50 for the entries that follow.
Reminder that pIC50 is minus the log10 of a molar concentration.

Name the recorded pIC50 of Cc1ccc(C(=O)c2nc(NC(C)c3ccccn3)nc3ccsc23)s1 (stereo unspecified) , assay system Adenosine receptor A2b (Homo sapiens). 7.72

Name the recorded pIC50 of O=C(c1ccncc1)c1nc(NCc2cccnc2)nc2ccsc12 , assay system Adenosine receptor A2b (Homo sapiens). 6.06

Name the recorded pIC50 of Cc1ccc(C(=O)c2nc(NCc3ccccc3)nc3ccsc23)s1 , assay system Adenosine receptor A2b (Homo sapiens). 5.25

Name the recorded pIC50 of Nc1cc2nc(NCc3cccnc3)nc(C(=O)c3cccs3)c2s1 , assay system Adenosine receptor A2b (Homo sapiens). 7.49

Name the recorded pIC50 of O=C(c1nccs1)c1nc(NCc2cccnc2)nc2ccsc12 , assay system Adenosine receptor A2b (Homo sapiens). 6.75

---

# PROTOCOL DETAILS: Permeability across human Caco-2 cells
# Format: ADME, cell-based
# REPORTED CONDITIONS: read-out: permeability
READOUT NAME: Papp (×10⁻⁶ cm/s)
Hi! Could you send only the number? It should be in ×10⁻⁶ cm/s, unit omitted.

Return reported Papp. Input compound: C[C@H](Nc1nc(C(=O)N2CCCC2)c2sccc2n1)c1cccnc1 33

---

Provide the recorded IC50 for the entries that follow.
# TEST TARGET: Adenosine receptor A2a (Homo sapiens)
# PROTOCOL DETAILS: Antagonist activity at human adenosine A2A receptor expressed in CHOK1 cells assessed as inhibition of calcium mobilization by FLIPR assay
Hi! Could you send only the number? It should be in µM, unit omitted.

Return reported IC50. Input molecule: CCc1nc(C(=O)c2ccc(C)s2)c2sccc2n1 3.85

Return reported IC50. Input molecule: O=C(c1cccs1)c1nc(NCc2cccnc2)nc2cc(Cl)sc12 0.062

Return reported IC50. Input molecule: O=C(c1ccncc1)c1nc(NCc2cccnc2)nc2ccsc12 1.94

Return reported IC50. Input molecule: CN(C)c1cc2nc(NCc3cccnc3)nc(C(=O)c3cccs3)c2s1 1.42

Return reported IC50. Input molecule: Cc1ccc(C(=O)c2nc(NC(=O)c3cccnc3)nc3ccsc23)s1 0.161

---

# PROTOCOL DETAILS: Clearance in po dosed rat
# Assay type: ADME, organism-based
# REPORTED CONDITIONS: in vivo
READOUT NAME: CL/F (mL/min/kg)
Hi! Could you send only the number? It should be in mL/min/kg, unit omitted.

Return reported CL/F. Input compound: C[C@H](Nc1nc(C(=O)N2CCCC2)c2sccc2n1)c1cccnc1 43.3

---

# TEST TARGET: Adenosine receptor A2a (Homo sapiens, UniProt P29274)
# PROTOCOL DETAILS: Antagonist activity at human adenosine A2A receptor expressed in CHOK1 cells assessed as inhibition of calcium mobilization by FLIPR assay
IC50 less than 2000 nM is label 1; IC50 greater than or equal to 2000 nM is label 0.

Does the reported IC50 of Cc1ccc(C(=O)c2nc(NCc3cccnc3)nc3ccsc23)cc1 stay below 2000 nM? label 1

Does the reported IC50 of CCNC(=O)c1nc(NCc2cccnc2)nc2ccsc12 stay below 2000 nM? label 0

Does the reported IC50 of CC(C)NC(=O)c1nc(NCc2cccnc2)nc2ccsc12 stay below 2000 nM? label 0

Does the reported IC50 of C[C@@H](Nc1nc(C(=O)N2CCCC2)c2sccc2n1)c1cccnc1 stay below 2000 nM? label 0

Does the reported IC50 of Nc1cc2nc(NCc3cccnc3)nc(C(=O)c3cccs3)c2s1 stay below 2000 nM? label 0

Does the reported IC50 of CC(Nc1nc(C(=O)N2CCCC2)c2sccc2n1)c1cccnc1 (racemic) stay below 2000 nM? label 0

Does the reported IC50 of Cc1ccc(C(=O)c2nc(NCCc3ccccn3)nc3ccsc23)s1 stay below 2000 nM? label 1

Does the reported IC50 of Cc1ccc(C(=O)c2nc(NCc3cccnc3)nc3ccsc23)o1 stay below 2000 nM? label 1

Does the reported IC50 of Cc1ccc(C(=O)c2nc(NCCc3cccnc3)nc3ccsc23)s1 stay below 2000 nM? label 1

Does the reported IC50 of Cc1ccc(C(=O)c2nc(NCc3ccncn3)nc3ccsc23)s1 stay below 2000 nM? label 1

Does the reported IC50 of C[C@H](Nc1nc(C(=O)N2CCCC2)c2sccc2n1)c1cccnc1 stay below 2000 nM? label 1

Does the reported IC50 of O=C(c1nc(NCc2cccnc2)nc2ccsc12)N1CCCC1 stay below 2000 nM? label 0

Does the reported IC50 of O=C(c1cncs1)c1nc(NCc2cccnc2)nc2ccsc12 stay below 2000 nM? label 1

Does the reported IC50 of O=C(NC1CC1)c1nc(NCc2cccnc2)nc2ccsc12 stay below 2000 nM? label 1

Does the reported IC50 of Cc1nc(C(=O)c2ccc(C)s2)c2sccc2n1 stay below 2000 nM? label 0

Does the reported IC50 of Cc1ccc(C(=O)c2nc(NCc3cccnc3)nc3ccsc23)s1 stay below 2000 nM? label 1

Does the reported IC50 of O=C(c1cccnc1)c1nc(NCc2cccnc2)nc2ccsc12 stay below 2000 nM? label 1

Does the reported IC50 of Cc1ccc(C(=O)c2nc(NCc3ccccn3)nc3ccsc23)s1 stay below 2000 nM? label 1

Does the reported IC50 of Cc1ccc(C(=O)c2nc(N(C)Cc3cccnc3)nc3ccsc23)s1 stay below 2000 nM? label 0

Does the reported IC50 of O=C(c1ccsc1)c1nc(NCc2cccnc2)nc2ccsc12 stay below 2000 nM? label 1

Does the reported IC50 of CCNc1cc2nc(NCc3cccnc3)nc(C(=O)c3cccs3)c2s1 stay below 2000 nM? label 0

Does the reported IC50 of CNc1cc2nc(NCc3cccnc3)nc(C(=O)c3cccs3)c2s1 stay below 2000 nM? label 1

---

# TEST TARGET: Adenosine receptor A2b (Homo sapiens, UniProt P29275)
# Sequence (P29275 whole entry): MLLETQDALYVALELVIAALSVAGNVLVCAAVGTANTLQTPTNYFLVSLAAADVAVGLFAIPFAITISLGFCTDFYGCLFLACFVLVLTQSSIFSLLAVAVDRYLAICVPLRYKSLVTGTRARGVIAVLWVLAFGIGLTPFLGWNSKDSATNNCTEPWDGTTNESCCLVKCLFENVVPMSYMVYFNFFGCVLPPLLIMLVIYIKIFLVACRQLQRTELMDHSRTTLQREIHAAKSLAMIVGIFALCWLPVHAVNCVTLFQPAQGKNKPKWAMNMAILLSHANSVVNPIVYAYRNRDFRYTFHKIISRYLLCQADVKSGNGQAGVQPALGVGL
# PROTOCOL DETAILS: Antagonist activity at human adenosine A2B receptor expressed in CHOK1 cells assessed as inhibition of calcium mobilization by FLIPR assay
Provide the recorded IC50 for the entries that follow.
Hi! Could you send only the number? It should be in nM, unit omitted.

Return reported IC50. Input compound: CCNc1nc(C(=O)c2ccc(C)s2)c2sccc2n1 1260

Return reported IC50. Input compound: O=C(NC1CC1)c1nc(NCc2cccnc2)nc2ccsc12 256

Return reported IC50. Input compound: Cc1ccc(C(=O)c2nc(N(C)Cc3cccnc3)nc3ccsc23)s1 4140

Return reported IC50. Input compound: CCNc1cc2nc(NCc3cccnc3)nc(C(=O)c3cccs3)c2s1 19

Return reported IC50. Input compound: Cc1ccc(C(=O)c2nc(NCCc3cccnc3)nc3ccsc23)s1 450

Return reported IC50. Input compound: O=C(NC1CCCCC1)c1nc(NCc2cccnc2)nc2ccsc12 571

Return reported IC50. Input compound: O=C(c1cncs1)c1nc(NCc2cccnc2)nc2ccsc12 148

Return reported IC50. Input compound: Cc1ccc(C(=O)c2nc(NCc3cccnc3)nc3ccsc23)cc1 215

Return reported IC50. Input compound: Cc1ccc(C(=O)c2nc(NCc3cccnc3)nc3ccsc23)s1 55

Return reported IC50. Input compound: COc1ccc(C(=O)c2nc(NCc3cccnc3)nc3ccsc23)cc1 1300

Return reported IC50. Input compound: Cc1ccc(C(=O)c2ncnc3ccsc23)s1 5380

Return reported IC50. Input compound: C[C@H](Nc1nc(C(=O)N2CCCC2)c2sccc2n1)c1cccnc1 18
